Listing of entries alongside the reported pIC50.
# targetDesc: human TRPA1 channel (Homo sapiens (Human), UniProt O75762)
# Sequence (O75762 whole entry): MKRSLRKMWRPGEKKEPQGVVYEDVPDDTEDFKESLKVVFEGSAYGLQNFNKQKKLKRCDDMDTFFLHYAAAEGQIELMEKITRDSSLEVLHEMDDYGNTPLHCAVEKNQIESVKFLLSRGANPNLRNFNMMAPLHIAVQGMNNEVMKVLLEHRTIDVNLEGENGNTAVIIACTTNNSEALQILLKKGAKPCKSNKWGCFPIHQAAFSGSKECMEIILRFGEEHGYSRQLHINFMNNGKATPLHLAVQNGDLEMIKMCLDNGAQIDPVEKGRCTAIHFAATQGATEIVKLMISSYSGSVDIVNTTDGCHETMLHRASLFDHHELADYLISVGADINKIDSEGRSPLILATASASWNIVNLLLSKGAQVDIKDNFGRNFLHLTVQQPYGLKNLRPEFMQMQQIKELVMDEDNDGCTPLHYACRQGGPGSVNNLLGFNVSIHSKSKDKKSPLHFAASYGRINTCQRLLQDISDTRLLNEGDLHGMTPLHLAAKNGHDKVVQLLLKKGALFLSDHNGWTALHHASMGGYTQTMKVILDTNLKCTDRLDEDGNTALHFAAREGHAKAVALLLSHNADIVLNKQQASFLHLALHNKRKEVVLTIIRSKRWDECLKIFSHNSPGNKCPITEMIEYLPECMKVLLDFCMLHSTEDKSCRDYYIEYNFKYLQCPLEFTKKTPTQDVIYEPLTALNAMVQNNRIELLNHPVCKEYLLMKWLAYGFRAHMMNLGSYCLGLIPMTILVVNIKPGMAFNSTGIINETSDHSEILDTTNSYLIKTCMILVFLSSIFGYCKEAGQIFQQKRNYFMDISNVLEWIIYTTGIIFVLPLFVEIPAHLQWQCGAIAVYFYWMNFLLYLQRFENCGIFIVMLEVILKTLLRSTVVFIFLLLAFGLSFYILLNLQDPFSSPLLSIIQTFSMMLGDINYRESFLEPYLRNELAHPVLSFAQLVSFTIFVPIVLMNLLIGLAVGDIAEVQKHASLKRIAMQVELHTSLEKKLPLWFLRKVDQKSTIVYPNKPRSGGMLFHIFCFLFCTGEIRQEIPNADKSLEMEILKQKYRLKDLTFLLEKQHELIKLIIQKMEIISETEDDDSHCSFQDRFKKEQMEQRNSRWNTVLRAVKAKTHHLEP
# assayMethodText: hTRPA1 CHO Ca2+ FLIPR Tetra assay, block of cinnamaldehyde induced calcium influx
# Format: cell-based
# conditionSet: read-out: hTRPA1 IC50 (10 min); CHO cells expressing TRPA1; compounds incubated 10 minutes at room temperature before cinnamaldehyde agonist; Hill coefficient fixed to 1.5
Please treat pIC50 as minus the base-10 logarithm of the molar concentration.

Cn1cnc2ncn(Cc3nc([C@@H]4[C@H]5C=C(c6ccc(F)c(F)c6F)C[C@H]54)no3)c(=O)c21 | 7.72
Cc1ccnc2ncn(Cc3nc([C@H]4C[C@](F)(c5ccc(F)cc5)C4)no3)c(=O)c12 | 7.89
Cn1cnc2ncn(Cc3nc([C@H]4[C@@H]5CN(c6ccc7ccncc7c6)C[C@@H]54)no3)c(=O)c21 | 7.16
Cc1cc(C#N)nc2ncn(Cc3nc([C@H]4C[C@](F)(c5ccc(F)cc5)C4)no3)c(=O)c12 | 7.42
Cn1cnc2ncn(Cc3nc([C@H]4[C@@H]5CN(c6cc(F)cc(F)c6)C[C@@H]54)no3)c(=O)c21 | 7.69
Cn1c(N)nc2ncn(Cc3nc([C@H]4[C@@H]5C=C(c6ccccc6)C[C@@H]54)no3)c(=O)c21 | 7.48
Cn1cnc2ncn(Cc3nc([C@@H]4[C@H]5C=C(c6cccc(-c7cnco7)c6)C[C@H]54)no3)c(=O)c21 | 7.34
Cn1c(=O)ccc2ncn(Cc3nc([C@H]4[C@@H]5CN(c6cc(Cl)ccn6)C[C@@H]54)no3)c(=O)c21 | 7.22
Cn1cnc2ncn(Cc3nc([C@H]4[C@@H]5C=C(c6cc(F)cc(F)c6)C[C@@H]54)no3)c(=O)c21 | 7.89
Cn1cnc2ncn(Cc3nc([C@H]4[C@@H]5CN(c6ccc7ncsc7c6)C[C@@H]54)no3)c(=O)c21 | 7.20

Reported pIC50 for Cn1cnc2ncn(Cc3nc([C@H]4[C@@H]5CN(c6ccc(C(F)(F)F)cc6)C[C@@H]54)no3)c(=O)c21 was 7.01

Reported pIC50 for Cn1cnc2ncn(Cc3nc([C@H]4[C@@H]5CN(c6ccc(C#N)cc6F)C[C@@H]54)no3)c(=O)c21 was 7.24

Reported pIC50 for Cn1cnc2ncn(Cc3nc([C@@H]4[C@H]5C=C(c6cccnc6)C[C@H]54)no3)c(=O)c21 was 6.46

----------
# targetDesc: human TRPA1 channel (Homo sapiens (Human), UniProt O75762)
# assayMethodText: hTRPA1 CHO Ca2+ FLIPR Tetra assay, block of cinnamaldehyde induced calcium influx
# Format: cell-based
# conditionSet: read-out: hTRPA1 IC50 (90 min); CHO cells expressing TRPA1; compounds incubated 90 minutes at room temperature before cinnamaldehyde agonist; Hill coefficient fixed to 1.5
Listing of entries alongside the reported IC50.
Give just the numeric value; nM need not be written.

Worked cases, answers included:
O=c1c2cccnc2cnn1Cc1nc([C@H]2[C@@H]3CN(c4ccc5ncsc5c4)C[C@@H]32)no1 [Example Compound 279] | 5.6
Cn1cnc2ncn(Cc3nc([C@H]4[C@@H]5C=C(c6ccccc6)C[C@@H]54)no3)c(=O)c21 [Example Compound 225] | 1.7
O=c1c2cccnc2cnn1Cc1nc([C@H]2[C@@H]3CN(c4cc(Cl)ccn4)C[C@@H]32)no1 [Example Compound 167] | 46
Cn1cnc2ncn(Cc3nc([C@@H]4[C@H]5C=C(c6ccc(C#N)c(F)c6)C[C@H]54)no3)c(=O)c21 [Example Compound 283] | 5.3
Cn1cnc2ncn(Cc3nc([C@H]4[C@@H]5CN(c6ncccc6F)C[C@@H]54)no3)c(=O)c21 [Example Compound 132] | 110
Cn1cnc2ncn(Cc3nc([C@H]4[C@@H]5CN(c6ccc(-c7cnco7)cc6)C[C@@H]54)no3)c(=O)c21 [Example Compound 150] | 38
Cn1cnc2ncn(Cc3nc([C@@H]4[C@H]5C=C(c6ccc(F)c(F)c6)C[C@H]54)no3)c(=O)c21 [Example Compound 94] | 4.9
Cn1cnc2ncn(Cc3nc([C@H]4[C@@H]5CN(c6cc7ccccc7cn6)C[C@@H]54)no3)c(=O)c21 [Example Compound 120] | 81

Reported IC50 for O=c1c2cccnc2ncn1Cc1nc([C@@H]2[C@H]3C=C(c4cccc(Cl)c4)C[C@H]32)no1 [Example Compound 181] was 21

Reported IC50 for Cn1cnc2ncn(Cc3nc([C@@H]4[C@H]5C=C(c6ccc(Cl)cn6)C[C@H]54)no3)c(=O)c21 [Example Compound 123] was 360

Reported IC50 for Cn1cc(-c2cc(Cl)cc(N3C[C@@H]4[C@H](C3)[C@H]4c3noc(Cn4cnc5ncn(C)c5c4=O)n3)c2)cn1 [Example Compound 163] was 23

Reported IC50 for Cn1cnc2ncn(Cc3nc([C@H]4[C@@H]5C=C(c6ccc(F)c(F)c6)C[C@@H]54)no3)c(=O)c21 [Example Compound 93] was 3.9

Reported IC50 for Cn1cnc2ncn(Cc3nc([C@H]4[C@@H]5CN(c6cc(Cl)ccn6)C[C@@H]54)no3)c(=O)c21 [Example Compound 212] was 25

----------
Listing of entries alongside the reported pIC50.
# targetDesc: human TRPA1 channel (Homo sapiens (Human), UniProt O75762)
# assayMethodText: hTRPA1 CHO Ca2+ FLIPR Tetra assay, block of cinnamaldehyde induced calcium influx
# Assay type: cell-based
# conditionSet: read-out: hTRPA1 IC50 (10 min); CHO cells expressing TRPA1; compounds incubated 10 minutes at room temperature before cinnamaldehyde agonist; Hill coefficient fixed to 1.5
Please treat pIC50 as minus the base-10 logarithm of the molar concentration.

O=c1c2cccnc2ncn1Cc1nc([C@H]2[C@@H]3CN(c4ccccc4)C[C@@H]32)no1 | 7.70
Cc1ccnc2ncn(Cc3nc([C@H]4C[C@](O)(c5ccc(Cl)cc5)C4)no3)c(=O)c12 | 6.85
O=c1c2cccnc2cnn1Cc1nc([C@H]2[C@@H]3CN(c4cccc(F)c4)C[C@@H]32)no1 | 8.08
Cc1cnn2ncn(Cc3nc([C@H]4[C@@H]5CN(c6cc(F)ccn6)C[C@@H]54)no3)c(=O)c12 | 7.72
COc1cccc(N2C[C@@H]3[C@H](C2)[C@H]3c2noc(Cn3cnc4ncn(C)c4c3=O)n2)c1 | 6.80

Reported pIC50 for Cn1cnc2ncn(Cc3nc([C@H]4[C@@H]5C=C(c6ccncc6)C[C@@H]54)no3)c(=O)c21 was 6.72

Reported pIC50 for Cn1cnc2ncn(Cc3nc([C@H]4[C@@H]5CN(c6cncc(C(F)(F)F)c6)C[C@@H]54)no3)c(=O)c21 was 6.10

Reported pIC50 for Cn1cnc2ncn(Cc3nc([C@H]4[C@@H]5CN(C[C@@H](F)c6ccc(Cl)cc6)C[C@@H]54)no3)c(=O)c21 was 6.07

Reported pIC50 for Cn1nnc2ncn(Cc3nc([C@H]4[C@@H]5CN(c6cccc(Cl)c6)C[C@@H]54)no3)c(=O)c21 was 7.97

Reported pIC50 for Cc1noc2ncn(Cc3nc([C@H]4[C@@H]5CN(c6cc(Cl)ccn6)C[C@@H]54)no3)c(=O)c12 was 7.37

Reported pIC50 for Cn1cnc2ncn(Cc3nc([C@H]4[C@@H]5C=C(c6cccc(F)c6)C[C@@H]54)no3)c(=O)c21 was 8.19

Reported pIC50 for Cn1cnc2ncn(Cc3nc([C@H]4[C@@H]5CN(c6cc7ccccc7cn6)C[C@@H]54)no3)c(=O)c21 was 7.04

Reported pIC50 for Cn1cnc2ncn(Cc3nc([C@H]4[C@@H]5C=C(c6ccc(F)c(F)c6)C[C@@H]54)no3)c(=O)c21 was 7.90

Reported pIC50 for Cn1cnc2ncn(Cc3nc([C@H]4C[C@H](C(=O)c5cccc(Cl)c5)C4)no3)c(=O)c21 was 6.93

Reported pIC50 for COc1ccc(C2=C[C@H]3[C@@H](C2)[C@@H]3c2noc(Cn3cnc4ncn(C)c4c3=O)n2)cc1 was 7.58

Reported pIC50 for Cn1cnc2ncn(Cc3nc([C@H]4C[C@H](c5cccc(F)c5)C4)no3)c(=O)c21 was 7.08

----------
# targetDesc: human TRPA1 channel (Homo sapiens (Human))
# assayMethodText: hTRPA1 CHO Ca2+ FLIPR Tetra assay, block of cinnamaldehyde induced calcium influx
# Format: cell-based
# conditionSet: read-out: hTRPA1 IC50 (10 min); CHO cells expressing TRPA1; compounds incubated 10 minutes at room temperature before cinnamaldehyde agonist; Hill coefficient fixed to 1.5
# if measured IC50 < 80 nM: class 1  # else: class 0

Cn1cnc2ncn(Cc3nc([C@@H]4[C@@H]5CN(c6cccc(Cl)c6)C[C@@H]54)no3)c(=O)c21 [Example Compound 24] | class 1
CC(=O)Nc1nc2ncn(Cc3nc([C@H]4[C@@H]5C=C(c6ccccc6)C[C@@H]54)no3)c(=O)c2n1C [Example Compound 241] | class 1
Cn1cnc2ncn(Cc3nc([C@H]4[C@@H]5CN(c6cccc(-c7ccccc7)c6)C[C@@H]54)no3)c(=O)c21 [Example Compound 234] | class 0

Request: Consider O=c1c2cccnc2ncn1Cc1nc([C@H]2C[C@](F)(c3cccc(F)c3)C2)no1 [Example Compound 197] . Does its IC50 lie strictly below 80 nM?
Result: class 1

Request: Consider Cn1cnc2ncn(Cc3nc([C@@H]4[C@H]5CC[C@H](Oc6ccccc6)[C@H]54)no3)c(=O)c21 [Example Compound 240] . Does its IC50 lie strictly below 80 nM?
Result: class 0

Request: Consider Cn1ncc2ncn(Cc3nc([C@H]4[C@@H]5CN(c6cc(Cl)ccn6)C[C@@H]54)no3)c(=O)c21 [Example Compound 155] . Does its IC50 lie strictly below 80 nM?
Result: class 0

Request: Consider O=c1c2cccnc2ncn1Cc1nc([C@H]2[C@@H]3C=C(c4cccc(Cl)c4)C[C@@H]32)no1 [Example Compound 180] . Does its IC50 lie strictly below 80 nM?
Result: class 1

Request: Consider Cc1ccnc2ncn(Cc3nc([C@H]4C[C@H](c5ccc(Cl)cc5)C4)no3)c(=O)c12 [Example Compound 17] . Does its IC50 lie strictly below 80 nM?
Result: class 1

Request: Consider Cc1ccnc2ncn(Cc3nc([C@H]4C[C@H](c5ccc(F)cc5)C4)no3)c(=O)c12 [Example Compound 164] . Does its IC50 lie strictly below 80 nM?
Result: class 1

Request: Consider O=c1c2cccnc2ncn1Cc1nc([C@H]2[C@@H]3CN(c4cc(F)ccn4)C[C@@H]32)no1 [Example Compound 154] . Does its IC50 lie strictly below 80 nM?
Result: class 0

Request: Consider Nc1ccc2c(=O)n(Cc3nc([C@H]4[C@@H]5C=C(c6ccccc6)C[C@@H]54)no3)cnc2n1 [Example Compound 239] . Does its IC50 lie strictly below 80 nM?
Result: class 1

src = patent US10711004B2
